System: LOX IMVI
Assay: NCI tumour cell line growth inhibition, 48 h
Activity calls are given as the source filed them. Cut-off read from the data, not from the text of the source: active = GI50 up to about 1.1 µM and inactive = higher.
The reply should name one outcome from 1 (yes) for active, 0 (no) for inactive

[Q] Record lookup: outcome of this test for `COc1ccc(/C=C2/CCCC/C2=N/O)cc1` ?
[A] 0 (no)

[Q] GET /call?item= Cc1cn(CCCCOC(=O)NC(CCCNC(=N)N)C(=O)O)c(=O)[nH]c1=O (stereo not drawn) returns the recorded outcome of this test.
[A] 0 (no)

[Q] I'd appreciate the recorded outcome for `CON(C)c1nc(N)c(C#N)c(C#N)c1C#N` from this test.
[A] 0 (no)

[Q] What outcome does the record of this test show for `CC(C)Cn1cnc2c(SCc3ccccn3)nc(N)nc21` ?
[A] 0 (no)

[Q] Hello, I am checking results. What call was entered for CCC[C@H](C)[C@H]1NC(=O)[C@@H](NC(=O)[C@@H](CC(C)C)N(C)C(=O)C2CCCN2C(=O)[C@H](C)O)[C@@H](C)OC(=O)[C@H](CC(C)C)N(C)C(=O)[C@@H]2CCCN2C(=O)[C@H](CC(C)C)NC(=O)[C@@H](C)C(=O)[C@H](C(C)C)OC(=O)C[C@@H]1O (stereo partly drawn) ?
[A] 1 (yes)

[Q] For CC(Oc1ccc(Cl)cc1Cl)C(=O)NN1C(=O)CC(=O)NC1=S (stereo not drawn) , which call appears in the assay record?
[A] 0 (no)

[Q] Write down the call the test reported for this compound. Item: `O=C1c2cccc3cc([N+](=O)[O-])cc(c23)C(=O)N1O`
[A] 0 (no)

[Q] Query: recorded result category for `C[C@H]1[C@H](C)CC[C@]2(C)CC[C@]3(C)C(=C[C@@H](O)[C@@H]4[C@@]5(C)[C@H](O)[C@@H](O)[C@H](O)C(C)(C)[C@@H]5CC[C@]43C)[C@H]12` in this test
[A] 0 (no)

----------
Test system: TK-10
Experiment: NCI tumour cell line growth inhibition, 48 h
Active and inactive are the calls of the source. Rule as the data show it: active = GI50 up to about 1.1 µM and inactive = higher.
assayMetric: GI50

// GI50 value for CC(C)c1ccc(/C=C2\CSCC3=C2N=C(S)NC3c2ccc(C(C)C)cc2)cc1 (stereo not given) : > 100 µM (inactive)

According to the records, this compound `CC(=O)O[C@@]12[C@@H]3O[C@@]4(O)C[C@]5(C)[C@H]6C[C@@](C(C)C)(O[C@H]5c5ccoc5)O[C@H]1[C@]6(C4)O[C@]2(O)C(C)=CC3(C)C` displays GI50 of > 100 µM (inactive)

Entry `Nc1ccc(N)c2c1C(=O)c1c(N)ccc(N)c1C2=O` , GI50 reported as > 59.3 µM (inactive)

Lab book: GI50 of `Sc1ccc2ccccc2c1CNCc1ccccc1` noted as 30.8 µM (inactive)

Entry N#Cc1c(-c2ccccc2)cc(-c2ccccc2)n(C2OC(CO)C(O)C(O)C2O)c1=S (stereo not given) , GI50 reported as 70.3 µM (inactive)

----------
Test system: HOP-62
Assay: NCI tumour cell line growth inhibition, 48 h
Calls of active or inactive are those of the source. No stated cut-off is given here; in the data, active = GI50 up to about 1.1 µM and inactive = higher.
Assignment: determine reported GI50 for the given compounds.

Value of measured GI50 for the entry `CN(C)/C=N/NC(=O)/C(C#N)=C/N(C)C` : > 100 µM (inactive)

According to the records, this compound `O=C(O)c1nc(-c2ccccn2)c(-c2ccccn2)nc1C(=O)O` displays GI50 of 2.15 µM (inactive)

Briefly, GI50 measured for `Cc1ccc(Nc2nc(C)c(C(/C=C/c3ccc(/C=C/C(=N/NC(=O)C[n+]4ccccc4)c4sc(Nc5ccc(C)cc5[N+](=O)[O-])nc4C)cc3)=N\NC(=O)C[n+]3ccccc3)s2)c([N+](=O)[O-])c1` : > 100 µM (inactive)

Just so you know, measured GI50 for `NN=C(CC(O)(C(F)(F)Cl)C(F)(F)Cl)CC(O)(C(F)(F)Cl)C(F)(F)Cl` came out at > 10 µM (inactive)

Consider CS(=O)(=O)N1CC(CCl)c2ccc(NO)cc21 (stereo not given) . Its measured GI50 is 17.7 µM (inactive)

FYI, the data here is from ChEMBL document CHEMBL1201862.
